Give measured MIC for each item. Keep answers brief.
Write the value in µg/mL as a bare number.

Test item Cl.O=C(O)c1cn(C2CC2)c2c(OC(F)F)c(N3C[C@H]4CCCN[C@H]4C3)c(F)cc2c1=O ; P. aeruginosa 17; reported MIC was 1

Test item Cl.Nc1c(F)c(N2C[C@H]3CCCN[C@H]3C2)c(OC(F)F)c2c1c(=O)c(C(=O)O)cn2C1CC1 ; P. aeruginosa 17; reported MIC was 0.25

Test item Cl.O=C(O)c1cn(C2CC2)c2c(OC(F)F)c(N3C[C@@H]4CCCN[C@@H]4C3)c(F)cc2c1=O (relative stereo) [Embodiment 15] ; P. aeruginosa 17; reported MIC was 0.5

Test item Cl.O=C(O)c1cn(C2CC2)c2c(OC(F)F)c(N3C[C@@H]4CCCN[C@@H]4C3)c(F)cc2c1=O [Embodiment 13] ; P. aeruginosa 17; reported MIC was 0.25
